For each of the binders below, state its hCTR funct. EC50 (pM).
Target: T1, human calcitonin receptor (human, UniProt P30988 25-474)
T1 sequence (looked up): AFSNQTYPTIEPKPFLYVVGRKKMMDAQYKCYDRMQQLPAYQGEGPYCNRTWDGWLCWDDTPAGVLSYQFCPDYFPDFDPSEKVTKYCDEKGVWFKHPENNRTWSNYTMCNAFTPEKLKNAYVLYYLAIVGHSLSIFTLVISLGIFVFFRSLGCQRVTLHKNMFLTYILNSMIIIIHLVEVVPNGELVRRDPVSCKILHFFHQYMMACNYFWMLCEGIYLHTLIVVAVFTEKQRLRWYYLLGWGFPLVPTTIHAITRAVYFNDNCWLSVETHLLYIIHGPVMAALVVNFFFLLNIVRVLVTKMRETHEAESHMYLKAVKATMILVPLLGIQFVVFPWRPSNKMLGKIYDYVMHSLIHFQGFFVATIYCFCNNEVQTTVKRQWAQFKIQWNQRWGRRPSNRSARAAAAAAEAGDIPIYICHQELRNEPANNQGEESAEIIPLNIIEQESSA
Assay: cell-based or functional assay
Numbered stars: 1 amine (or outer) side, 2 acyl side, 3 side chain; on linkers, the order of the positions; unused ones are H or OH. Bridge positions count the residues as written; N and C are the ends. Side chains are listed from the residue outwards. Ends that are not written are not given here. * marks the point of attachment. C20 diacid = O=C(O)CCCCCCCCCCCCCCCCCCC(=O)*; γGlu = O=C(O)[C@H](CCC(=O)[*:2])N[*:1]
Report as a plain number; the unit pM is understood.

Exercise: Fill blank: measured hCTR funct. EC50 (pM) of the binder K([γGlu-C20 diacid])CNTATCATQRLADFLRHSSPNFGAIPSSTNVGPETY-NH2 (disulfide 2-7 (inferred)) is ____.
Solution: 1120

Exercise: What do we get for K([γGlu-C20 diacid])CNTATCATQRLAEFLRHSSPNFGAIPSSTNVGSHTY-NH2 (disulfide 2-7 (inferred)) ?
Solution: 5580

Exercise: What do we get for K([γGlu-γGlu-C20 diacid])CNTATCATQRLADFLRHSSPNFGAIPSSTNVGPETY-NH2 (disulfide 2-7 (inferred)) ?
Solution: 843
